# Experimental details: ACEA_AR_agonist_AUC_viability: ACEA Biosciences xCELLigence Real-Time Cell Analysis on Androgen Receptor Agonism for Viability (AID 2283775);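 as to AC50: viability read 80 hours after compound addition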
Results filed as inconclusive are left out. The source made the active and inactive calls. The calls were made as follows: active = hit-call score of the fitted dose curve at least 0.9, where 1 is the maximum; inconclusive = response in the unintended direction; inactive = score below 0.9.
Assay metric: AC50

>  <Compound>
CSc1ccc(Oc2ccc(S(N)(=O)=O)cc2CN(C)C)cc1C

>  <Reported result>
65.2 µM (active)

$$$$
>  <Compound>
Cc1cc(SC2=C(O)C[C@@](CCc3ccc(N)cc3)(C(C)C)OC2=O)c(C(C)(C)C)cc1CO

>  <Reported result>
50 µM (active)

$$$$
>  <Compound>
CCCCCCC(CCCCCCCCCCC(=O)OCC(COC(C)=O)OC(C)=O)OC(C)=O (stereo not drawn)

>  <Reported result>
inactive

$$$$
>  <Compound>
NC=O

>  <Reported result>
inactive

$$$$
>  <Compound>
O=C(O)CN(CC(=O)O)CC(=O)O

>  <Reported result>
inactive

$$$$
>  <Compound>
O=C(O)c1cccnc1

>  <Reported result>
inactive

$$$$
>  <Compound>
O=C(O)CC(O)(CC(=O)O)C(=O)O

>  <Reported result>
inactive

$$$$
>  <Compound>
O=C1O[C@H]([C@H](O)CO)C(O)=C1O

>  <Reported result>
inactive

$$$$
>  <Compound>
O=C(NS(=O)(=O)/C=C/c1cccs1)c1ccc(F)cc1Br

>  <Reported result>
3.38 µM (active)

$$$$
>  <Compound>
O=C(O)c1[nH]n(-c2ccc(S(=O)(=O)O)cc2)c(=O)c1N=Nc1ccc(S(=O)(=O)O)cc1

>  <Reported result>
inactive

$$$$
>  <Compound>
O=C1CCCCC1

>  <Reported result>
inactive

$$$$
>  <Compound>
CC(C)c1cccc(C(C)C)c1NC(=O)NS(=O)(=O)c1cc(C(C)(C)O)co1

>  <Reported result>
28.2 µM (active)

$$$$
>  <Compound>
COc1ccc(C(=O)Nc2nc3ccccc3c(NCc3ccccc3)c2C#N)cc1

>  <Reported result>
24 µM (active)

$$$$

====

# Experimental details: Tanguay_ZF_120hpf_NC_legacy: (Legacy) Oregon State University Tanguay Lab 120 Hour Post-fertilization zebrafish Assay for Notochord and Tail Malformation (AID 2283656)
# Protocol: Tanguay_ZF_120hpf_legacy is a whole embryo, multiplexed endpoint assay using zebrafish larvae exposed for 120 hours post fertilization on a 96-well plate.Tanguay_ZF_120hpf_NC_legacy is one of one assay component(s) measured or calculated from the Tanguay_ZF_120hpf_legacy assay. […] This assay endpoint, Tanguay_ZF_120hpf_NC_legacy, was analyzed in the positive analysis fitting direction relative to DMSO as the negative control and baseline of activity. […]
Records with an inconclusive call do not appear. Activity calls are given as the source filed them. Rule for the calls: active = hit-call score of the fitted dose curve at least 0.9, where 1 is the maximum; inconclusive = response in the unintended direction; inactive = score below 0.9.
Outcome codes: active, inactive

>  <Chemical string>
O=C(N[C@@H](c1ccccc1)[C@@H]1CCCCN1)c1cccc(C(F)(F)F)c1Cl

>  <Class name>
inactive

$$$$
>  <Chemical string>
c1ccc2occc2c1

>  <Class name>
inactive

$$$$
>  <Chemical string>
COC(=O)CCCC(=O)OC

>  <Class name>
inactive

$$$$
>  <Chemical string>
C/C=C/C=C/C(=O)O

>  <Class name>
inactive

$$$$
>  <Chemical string>
CCCCCCCC(=O)OC

>  <Class name>
inactive

$$$$
>  <Chemical string>
CS(=O)(=O)c1ccc([C@@H](C[C@H]2CCC(=O)C2)C(=O)Nc2cnccn2)cc1Cl

>  <Class name>
inactive

$$$$
>  <Chemical string>
O=C1CCCCC1

>  <Class name>
inactive

$$$$
>  <Chemical string>
CC(C)c1cccc(C(C)C)c1NC(=O)NS(=O)(=O)c1cc(C(C)(C)O)co1

>  <Class name>
inactive

$$$$
>  <Chemical string>
CC(=O)OCC(COC(C)=O)OC(C)=O

>  <Class name>
inactive

$$$$
>  <Chemical string>
S=c1[nH]c2ccccc2s1

>  <Class name>
active

$$$$
>  <Chemical string>
OCC(O)CO

>  <Class name>
inactive

$$$$
>  <Chemical string>
O=Cc1ccccc1C=O

>  <Class name>
inactive

$$$$
>  <Chemical string>
CN(C)C(=O)NC1(c2ccccc2)CCN(CC[C@@]2(c3ccc(F)c(F)c3)CN(C(=O)c3ccccc3)CCO2)CC1

>  <Class name>
inactive

$$$$
>  <Chemical string>
CO[C@@H]1COCC[C@@H]1N[C@@H]1CC[C@@](C(=O)N2CCc3ncc(C(F)(F)F)cc3C2)(C(C)C)C1

>  <Class name>
inactive

$$$$
>  <Chemical string>
COC(=O)CCC(=O)OC

>  <Class name>
inactive

$$$$
>  <Chemical string>
O=C1c2c(O)cccc2Cc2cccc(O)c21

>  <Class name>
inactive

$$$$
>  <Chemical string>
O=C(O)CN(CC(=O)O)CC(=O)O

>  <Class name>
inactive

$$$$
>  <Chemical string>
Cc1cc(Cc2ccc(N)c(C)c2)ccc1N

>  <Class name>
inactive

$$$$
>  <Chemical string>
O=C(NS(=O)(=O)/C=C/c1cccs1)c1ccc(F)cc1Br

>  <Class name>
inactive

$$$$
>  <Chemical string>
OCC(CO)n1cnc(-c2ccc(F)cc2)c1-c1ccnc(Oc2ccccc2)n1

>  <Class name>
inactive

$$$$
>  <Chemical string>
CC(=O)O

>  <Class name>
inactive

$$$$
>  <Chemical string>
CC(=O)[C@@]1(O)CC[C@H]2[C@@H]3CCC4=CC(=O)CC[C@]4(C)[C@H]3CC[C@@]21C

>  <Class name>
inactive

$$$$
>  <Chemical string>
CCCCCCCCCCCCCCCCO

>  <Class name>
inactive

$$$$
>  <Chemical string>
Cn1cnc2c1c(=O)[nH]c(=O)n2C

>  <Class name>
inactive

$$$$
>  <Chemical string>
CCOCCOCCO

>  <Class name>
inactive

$$$$
>  <Chemical string>
O=C(O)CC(O)(CC(=O)O)C(=O)O

>  <Class name>
inactive

$$$$
>  <Chemical string>
CN(C)C(=O)NC1(c2ccccc2)CCN(CCC[C@]2(c3ccc(Cl)c(Cl)c3)CCCN(C(=O)c3ccccc3)C2)CC1

>  <Class name>
inactive

$$$$
